# Test system: rhIFNγ stimulated STAT-3 phosphorylation in the A549 human epithelial cell line
# Measurement Notes: A549 Cell Assay: Inhibition of pSTAT3
# Type: cell-based
# Stated Conditions: Homo sapiens; A549 cells
Readout Label: IC50 (nM)

Past entries and their recorded results:
- Molecule Smiles: "CN(c1ccc(Cl)cc1CNc1nc(-c2cc(F)c(O)cc2CC(F)(F)F)cc2[nH]nc(C(N)=O)c12)S(C)(=O)=O"
  Result Units: "nM"
  Result Value: 46.3
- Molecule Smiles: "CCN(c1ccccc1CNc1nc(-c2cc(F)c(O)cc2CC(F)(F)F)cc2[nH]nc(C(N)=O)c12)S(=O)(=O)CC"
  Result Units: "nM"
  Result Value: 20.9
- Molecule Smiles: "CCc1cc(O)c(F)cc1-c1cc2[nH]nc(C(=O)NC)c2c(NCC2CCCC2)n1"
  Result Units: "nM"
  Result Value: 26
- Molecule Smiles: "CNC(=O)c1n[nH]c2cc(-c3cc(F)c(O)cc3CC(F)(F)F)nc(NCc3ncccc3N(C)S(C)(=O)=O)c12"
  Result Units: "nM"
  Result Value: 156
- Molecule Smiles: "CNC(=O)c1n[nH]c2cc(-c3cc(F)c(O)cc3CC(F)(F)F)nc(NCc3cc(Cl)ccc3N(C)S(C)(=O)=O)c12"
  Result Units: "nM"
  Result Value: 92.4

1 = CN(c1ncccc1CNc1nc(-c2cc(F)c(O)cc2CC(F)(F)F)cc2[nH]nc(C(N)=O)c12)S(C)(=O)=O
2 = CN(c1ccc(O)cc1CNc1nc(-c2cc(F)c(O)cc2CC(F)(F)F)nc2[nH]nc(C(N)=O)c12)S(=O)(=O)c1ccccc1
Which shows the larger IC50 value: 1 or 2 ? Refer to your chosen entry by its label in the reply.
2
(2: 1500 nM, 1: 71.8 nM)

* * *

# System: rhIFNγ stimulated STAT-3 phosphorylation in the A549 human epithelial cell line
# Measurement Notes: A549 Cell Assay: Inhibition of pSTAT3
# Assay type: cell-based
# Stated Conditions: Homo sapiens; A549 cells
pIC50: −log10 of the molar value. Structures can show the parent of a compound that is named as a salt.
Readout Label: pIC50

Past entries and their recorded results:
- Compound: "CNC(=O)c1n[nH]c2cc(-c3cc(F)c(O)cc3CC(F)(F)F)nc(NCc3ccccc3N(C)S(C)(=O)=O)c12"
  Target: "rhIFNγ stimulated STAT-3 phosphorylation in the A549 human epithelial cell line"
  pIC50: 7.73
- Compound: "CN(c1ccccc1CNc1nc(-c2cc(F)c(O)cc2CC(F)(F)F)nc2[nH]nc(-c3nnc(C4CCN(C(=O)CN5CCCC5)CC4)[nH]3)c12)S(C)(=O)=O"
  Target: "rhIFNγ stimulated STAT-3 phosphorylation in the A549 human epithelial cell line"
  pIC50: 5.88
- Compound: "CCc1cc(O)c(F)cc1-c1cc2[nH]ncc2c(N(C)Cc2ccccc2N(CC)S(C)(=O)=O)n1 [Example 145, hydrochloride]"
  Target: "rhIFNγ stimulated STAT-3 phosphorylation in the A549 human epithelial cell line"
  pIC50: 7.80
- Compound: "CCc1cc(O)c(F)cc1-c1cc2[nH]ncc2c(NCc2ccccc2N(C)S(C)(=O)=O)n1"
  Target: "rhIFNγ stimulated STAT-3 phosphorylation in the A549 human epithelial cell line"
  pIC50: 8.13
- Compound: "CN(c1ccccc1CNc1nc(-c2cc(F)c(O)cc2CC(F)(F)F)cc2[nH]nc(-n3cccn3)c12)S(C)(=O)=O"
  Target: "rhIFNγ stimulated STAT-3 phosphorylation in the A549 human epithelial cell line"
  pIC50: 7.01
- Compound: "CCN(c1ccc(F)cc1CNc1nc(-c2cc(F)c(O)cc2CC(F)(F)F)cc2[nH]nc(C(N)=O)c12)S(C)(=O)=O"
  Target: "rhIFNγ stimulated STAT-3 phosphorylation in the A549 human epithelial cell line"
  pIC50: 7.52

P = CN(c1ccccc1CNc1nc(-c2cc(F)c(O)cc2CC(F)(F)F)cc2[nH]nc(C(N)=O)c12)S(=O)(=O)c1cccnc1
Q = CCc1cc(O)c(F)cc1-c1cc2[nH]nc(-n3cccn3)c2c(NCc2ccccc2N(C)S(C)(=O)=O)n1
R = CC(CO)CNc1nc(-c2cc(F)c(O)cc2CC(F)(F)F)nc2[nH]nc(-c3nc4c([nH]3)CCN(Cc3ccccc3)C4)c12 (stereo not drawn)
S = CS(=O)(=O)N(CCO)c1ccccc1CNc1nc(-c2cc(F)c(O)cc2CC(F)(F)F)cc2[nH]nc(C(N)=O)c12
Hey, quick one: sort these by pIC50, low to high? The labels, placed in the requested order, form the answer.
S, R, P, Q

A = Cc1ccc(NC(=O)c2n[nH]c3cc(-c4cc(F)c(O)cc4CC(F)(F)F)nc(NCc4ccccc4N(C)S(C)(=O)=O)c23)cn1
B = Oc1cc(CC(F)(F)F)c(-c2nc(NCCC3CC3)c3cn[nH]c3n2)cc1F
C = CNC(=O)c1n[nH]c2cc(-c3cc(F)c(O)cc3CC(F)(F)F)nc(NCc3ccccc3N(C)S(=O)(=O)c3cccc(O)c3)c12
D = CC(=O)N1CCc2[nH]c(-c3n[nH]c4nc(-c5cc(F)c(O)cc5CC(F)(F)F)nc(NCc5cc(O)ccc5N(C)S(C)(=O)=O)c34)nc2C1
Reorder: pIC50, max to min. The labels, placed in the requested order, form the answer.
B, A, C, D
(B: 6.88, A: 6.49, C: 6.20, D: 5.87)

I = CNC(=O)c1n[nH]c2cc(-c3cc(F)c(O)cc3CC(F)(F)F)nc(NCC(C)C)c12
II = CCc1cc(O)c(F)cc1-c1cc2[nH]nc(C(=O)NC)c2c(NCc2ccccc2N(C)S(=O)(=O)CC)n1
Which shows the larger pIC50 value: I or II ? Refer to your chosen entry by its label in the reply.
II

P = CN(c1ccccc1CNc1nc(-c2cc(F)c(O)cc2CC(F)(F)F)cc2[nH]nc(C(N)=O)c12)S(C)(=O)=O
Q = CCN(c1ccccc1CNc1nc(-c2cc(F)c(O)cc2CC(F)(F)F)cc2[nH]nc(C(=O)NC)c12)S(=O)(=O)CC
Which shows the larger pIC50 value: P or Q ? Refer to your chosen entry by its label in the reply.
P
(P: 7.48, Q: 7.17)

A = CCc1cc(O)c(F)cc1-c1nc(NCc2ccccc2N(C)S(C)(=O)=O)c2c(C(=O)NC)n[nH]c2n1
B = CNC(=O)c1n[nH]c2cc(-c3cc(F)c(O)cc3CC(F)(F)F)nc(NCc3ccccc3N(C)S(=O)(=O)c3ccc(C)nc3)c12
C = CN(c1ccccc1CNc1nc(-c2cc(F)c(O)cc2CC(F)(F)F)nc2[nH]nc(C(N)=O)c12)S(=O)(=O)c1ccccc1
Reorder: pIC50, max to min. The labels, placed in the requested order, form the answer.
A, B, C
(A: 7.50, B: 7.04, C: 5.54)
